B1: Transcription factor SOX-11, residues 50 to 117; numbered along this chain, P35716 (parent)
chain: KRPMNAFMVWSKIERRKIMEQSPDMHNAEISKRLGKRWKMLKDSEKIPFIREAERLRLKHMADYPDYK

Variants of: B1
Assay: abundance fitness (aPCA) (normalised: wild type 0, dead -1); higher = more abundant; growth selection in yeast, the domain comes from the species named
Conditions: Homo sapiens
Could you label it rule met if measured abundance fitness is -0.4 or higher, and rule not met otherwise?

Reference set (4 entries):
{"columns": ["mutation-descriptor", "group"],
 "data": [
  ["S44E", "rule met"],
  ["S44F", "rule met"],
  ["K32Q", "rule met"],
  ["I30G", "rule not met"]
]}

Incoming: Dear colleague, could you confirm whether "S22K" has abundance fitness at or above -0.4?
Outgoing: rule met

Incoming: Dear colleague, could you confirm whether "P23S" has abundance fitness at or above -0.4?
Outgoing: rule not met

Reference for the values: the Human Domainome abundance scans (Beltran et al. 2025)
